B1: TPR 5TU (parent)
chain: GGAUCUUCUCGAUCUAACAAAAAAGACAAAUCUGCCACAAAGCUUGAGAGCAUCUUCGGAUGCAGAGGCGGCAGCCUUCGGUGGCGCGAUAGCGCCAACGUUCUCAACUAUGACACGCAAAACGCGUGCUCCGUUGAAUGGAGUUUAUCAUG

# Variants of: B1
# assay: polymerase ribozyme fitness, log enrichment relative to wild type (log ratio); higher = more active; in vitro selection for triplet polymerase activity
This sample holds only a part of the variants without activity.
Give measured polymerase ribozyme fitness (log ratio) for each item. Keep answers brief.

Would you mind giving polymerase ribozyme fitness (log ratio) for every variant in the list below?
1. C38U U61G G92U C116G G140A U144C
2. A26G G59A A89C C105U
3. U56A G84A U90C C125A

["≤ -4.2", "≤ -4.2", "≤ -4.2"]
